system: PA-IL (Pseudomonas aeruginosa, UniProt Q05097)
Sequence (Q05097 whole entry): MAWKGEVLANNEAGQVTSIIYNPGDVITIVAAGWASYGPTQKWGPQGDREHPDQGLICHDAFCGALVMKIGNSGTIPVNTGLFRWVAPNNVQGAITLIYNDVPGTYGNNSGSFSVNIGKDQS
protocol description: Assay for PA-IL antagonist activity (competition with α-galactose-PAA-biotin/streptavidin-HRP on coated plate)
pIC50: −log10 of the molar value.
parameter measured: pIC50

CC1CCC[C@@H](O[C@@H]2OC(CO)[C@H](O)C(O[C@H]3OC(CO)[C@H](O)C(O)C3O)C2O)C1OC1O[C@@H](C)C(O)C(O)[C@@H]1O (stereo partly shown) [Glycomimetic Compound (I)] = 5.14
